Target: GPR73 (prokineticin 1 receptor) (Homo sapiens, UniProt Q8TCW9)
Construct: expressed in transfected cells; host or cells: HEK 293
Sequence (Q8TCW9 whole entry, species assumed): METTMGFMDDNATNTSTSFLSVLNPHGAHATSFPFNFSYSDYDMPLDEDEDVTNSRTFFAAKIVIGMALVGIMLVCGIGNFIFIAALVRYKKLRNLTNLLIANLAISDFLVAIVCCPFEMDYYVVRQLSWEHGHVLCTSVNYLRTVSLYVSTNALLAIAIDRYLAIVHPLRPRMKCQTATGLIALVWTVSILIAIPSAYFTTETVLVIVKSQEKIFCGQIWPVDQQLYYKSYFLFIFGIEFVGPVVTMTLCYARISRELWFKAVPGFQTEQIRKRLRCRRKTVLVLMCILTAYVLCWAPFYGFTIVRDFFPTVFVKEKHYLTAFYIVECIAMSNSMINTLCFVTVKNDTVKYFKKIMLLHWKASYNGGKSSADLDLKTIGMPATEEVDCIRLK
Test: PK1 functional assay: Ca2+ mobilization on the FLIPR
Type: cell-based
Conditions: 10 µM; read-out: Ca^2+ Mobilization % Inh @10 µM
Method: At a time of 24 h prior to running the assay, in cell culture media (DMEM containing high Glucose and L-glutamine, 10% FBS, 1% Pen/Streptomycin, 1% Sodium Pyruvate, 20 mM HEPES, Zeocin 200 mg/L), 100 µL of 1.3*10^6/ml HEK 293 GPR73 (prokineticin 1 receptor) expressing cells were plated in a 96 well poly-d-lysine coated plate (Costar), and incubated at 37° C. and 5% CO2. […] Baseline is described as the amount of relative fluorescence read when buffer alone is added to cells. […]
Exercise: state measured inhibition at 10 µM for each of the molecules provided.
Give your result in % as a bare value.

Nc1nc2c(F)cc(F)cc2n1CCNc1nc(=O)n(Cc2ccc(F)cc2)c(=O)n1Cc1ccc(OC(F)F)cc1 yielded inhibition at 10 µM of 39

inhibition at 10 µM for Nc1nc2ccccc2n1CCNc1nc(=O)n(Cc2ccc(F)cc2)c(=O)n1Cc1ccc(OC(F)F)cc1 is 103

Record Nc1nc2cc(C(F)(F)F)ccc2n1CCNc1nc(=O)n(Cc2ccc(F)cc2)c(=O)n1Cc1ccc(OC(F)(F)F)cc1 . Reported inhibition at 10 µM: 59

Lab note: COc1ccc(Cn2c(NCCc3cnc(N)[nH]3)nc(=O)n(Cc3ccc4c(c3)nnn4C)c2=O)cc1 gave inhibition at 10 µM of 93

For reference, reported inhibition at 10 µM for COc1ccc(Cn2c(NCCn3c(N)nc4ccccc43)nc(=O)n(Cc3ccc4c(c3)CCO4)c2=O)cc1 stands at 102

Sample Cn1nnc2cc(Cn3c(=O)nc(NCCc4cnc(N)[nH]4)n(Cc4ccc(OC(F)F)cc4)c3=O)ccc21 ; inhibition at 10 µM observed: 98

Measured inhibition at 10 µM of Nc1nc2ccc(Cl)cc2n1CCNc1nc(=O)n(Cc2ccc(F)cc2)c(=O)n1Cc1ccc(OC(F)(F)F)cc1 : 84

Value of inhibition at 10 µM reported for the molecule COc1ccc(Cn2c(NCCc3cnc(N)[nH]3)nc(=O)n(Cc3ccc4c(c3)CCO4)c2=O)cc1 is 97

Entry COc1ccc(Cn2c(NCCn3c(N)nc4cc(S(C)(=O)=O)ccc43)nc(=O)n(Cc3ccc(F)cc3)c2=O)cc1 , inhibition at 10 µM reported as 67

The molecule listed as COc1ccc(Cn2c(NCCn3ccnc3N)nc(=O)n(Cc3ccc(F)cc3)c2=O)cc1 has a reported inhibition at 10 µM of 97

GET /value?item= COc1ccc(Cn2c(NCCc3cnc(N)[nH]3)nc(=O)n(Cc3ccc(Cl)c(Cl)c3)c2=O)cc1 &field=inhibition at 10 µM returns 96

So, COc1ccc(Cn2c(NCCn3c(N)nc4ccccc43)nc(=O)n(Cc3ccc(SC)cc3)c2=O)cc1 ? Its inhibition at 10 µM was 103

Per the records, this molecule ( NC1=Nc2cc(F)ccc2CN1CCNc1nc(=O)n(Cc2ccc(F)cc2)c(=O)n1Cc1ccc(OC(F)(F)F)cc1 ) has inhibition at 10 µM equal to 104

molecule CSc1ccc(Cn2c(=O)nc(NCCc3cnc(N)[nH]3)n(Cc3ccc4c(c3)CCO4)c2=O)cc1 , inhibition at 10 µM observed: 93

The molecule identified as Nc1nc2cccc(F)c2n1CCNc1nc(=O)n(Cc2ccc(F)cc2)c(=O)n1Cc1ccc(OC(F)F)cc1 registered its inhibition at 10 µM at 94
